# protein stability index values compiled below
B1: TMEM175 (parent)
chain: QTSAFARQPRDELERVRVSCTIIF

# Variants of: B1
# testDescription: protein stability index of a GFP-peptide fusion (GPS, HEK-293T) (PSI 1-6); higher = more stable;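 also: lentivirally expressed fusions sorted by FACS into six bins by GFP to DsRed ratio, PSI derived from sequencing read proportions per bin multiplied by bin number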
# assayContext: c terminus: a fixed tail appended
readoutLabel: protein stability index

I22A: 1.99
P9D: 2.03
V16D: 1.98

Data provenance: the supplement of paper PMC10567573
